- System Name: USP7 (Homo sapiens (Human), UniProt Q93009)
- Sequence (Q93009 whole entry): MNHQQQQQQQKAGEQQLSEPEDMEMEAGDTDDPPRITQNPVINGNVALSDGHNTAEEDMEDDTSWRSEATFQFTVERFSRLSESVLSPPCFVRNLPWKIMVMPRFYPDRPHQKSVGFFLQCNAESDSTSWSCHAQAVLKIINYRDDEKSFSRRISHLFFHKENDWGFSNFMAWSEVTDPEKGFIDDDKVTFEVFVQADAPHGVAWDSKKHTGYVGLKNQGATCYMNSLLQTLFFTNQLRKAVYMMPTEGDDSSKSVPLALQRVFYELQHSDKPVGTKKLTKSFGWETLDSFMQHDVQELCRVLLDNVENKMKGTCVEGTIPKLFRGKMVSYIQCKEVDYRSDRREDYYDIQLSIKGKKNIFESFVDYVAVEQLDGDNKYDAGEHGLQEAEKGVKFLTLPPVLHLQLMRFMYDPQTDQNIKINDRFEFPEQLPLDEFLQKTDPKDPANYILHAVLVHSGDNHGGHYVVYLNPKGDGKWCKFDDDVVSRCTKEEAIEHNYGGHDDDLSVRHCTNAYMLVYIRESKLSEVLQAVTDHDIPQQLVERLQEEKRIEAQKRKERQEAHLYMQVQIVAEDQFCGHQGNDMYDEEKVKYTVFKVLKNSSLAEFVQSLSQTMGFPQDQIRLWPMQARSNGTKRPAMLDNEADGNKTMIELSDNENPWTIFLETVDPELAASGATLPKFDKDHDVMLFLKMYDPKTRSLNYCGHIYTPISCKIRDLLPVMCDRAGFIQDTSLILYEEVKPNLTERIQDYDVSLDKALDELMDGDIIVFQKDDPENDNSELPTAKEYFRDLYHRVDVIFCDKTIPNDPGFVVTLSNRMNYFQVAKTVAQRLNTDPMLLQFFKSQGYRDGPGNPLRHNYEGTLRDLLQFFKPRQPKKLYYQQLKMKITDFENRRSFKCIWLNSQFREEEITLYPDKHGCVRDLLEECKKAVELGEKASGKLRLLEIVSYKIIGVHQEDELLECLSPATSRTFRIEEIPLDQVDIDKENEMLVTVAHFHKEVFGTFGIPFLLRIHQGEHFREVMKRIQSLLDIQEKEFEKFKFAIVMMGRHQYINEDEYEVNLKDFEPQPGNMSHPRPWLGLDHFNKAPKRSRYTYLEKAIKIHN
- Assay Summary: Competitive ABPP with HA-Ub-VS in MCF7 crude cell extracts
- Type: binding
- Condition Info: 4 hr preincubation, read-out: IC50 of inhibition of HA-Ub-VS labeling
- Method: HA-Ub-VS experiments were performed as previously described in Lamberto, I. et al. Structure-Guided Development of a Potent and […] Selective Non-covalent Active-Site Inhibitor of USP7. Cell Chem. Biol. 24, 1490-1500 (2017). […] Samples were resolved by SDS-PAGE and analyzed by Western blot with the indicated antibodies.
pIC50: −log10 of the molar value.
Reported Endpoint: pIC50

1) CN1CCN(CCC(=O)Nc2ccc3c(=O)n(CC4(O)CCN(C(=O)[C@@H](CCCNC(=O)c5ccc6c(Cl)c7c(nc6c5)CCCC7)Cc5ccccc5)CC4)cnc3c2)CC1 [compound 6] = 8.10
